The reported numbers originate from PubChem BioAssay AID1259318.

Molecular target: Nuclear receptor subfamily 1 group D member 1 (Homo sapiens)
Assay: modulators of Rev-erb alpha DNA binding, primary screen, biochemical, FITC-DNA, fluorescence polarization, uHTS (AID 1259318);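 also: 0% = DMSO wells with 35 nM protein and 100% = DMSO wells with 750 nM protein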
Conditions: Rev-erbα–FITC-DNA binding, 90 min, at 10 µM, stronger effect = higher value
Hit rate of the full screen: of about 370,000 compounds, about 3,000 (0.81%) were called active. Only a selection was taken, and actives are over-represented in it overall.
Kindly state activity for each of the entries shown.

## Task Data request, read-out activity, for O=[N+]([O-])/C=C1\CCCCCN1
## Result -3.45% (inactive)

## Task Same again, this time with COC(=O)[C@@]12C[C@@H](CC(=O)NCCCCc3ccccc3)C(=O)N(CCc3ccc(OC)c(OC)c3)C1=CCC(C)(C)C2
## Result 0.11% (inactive)

## Task Same again, this time with O=C(CSc1nnc(-c2cccc(Cl)c2)n1Cc1ccco1)Nc1ccc(OCc2ccccc2)cc1
## Result 4.77% (inactive)

## Task Same again, this time with O=C(Nc1cccc(-n2cnnn2)c1)c1cccnc1
## Result 1.66% (inactive)

## Task Same again, this time with Cc1cccc(C(=O)Nc2ccccc2C(=O)NCc2cccnc2)c1
## Result 0.06% (inactive)

###

Target: Nuclear receptor subfamily 1 group D member 1 (Homo sapiens) (UniProt P20393)
Sequence (P20393 whole entry, looked up): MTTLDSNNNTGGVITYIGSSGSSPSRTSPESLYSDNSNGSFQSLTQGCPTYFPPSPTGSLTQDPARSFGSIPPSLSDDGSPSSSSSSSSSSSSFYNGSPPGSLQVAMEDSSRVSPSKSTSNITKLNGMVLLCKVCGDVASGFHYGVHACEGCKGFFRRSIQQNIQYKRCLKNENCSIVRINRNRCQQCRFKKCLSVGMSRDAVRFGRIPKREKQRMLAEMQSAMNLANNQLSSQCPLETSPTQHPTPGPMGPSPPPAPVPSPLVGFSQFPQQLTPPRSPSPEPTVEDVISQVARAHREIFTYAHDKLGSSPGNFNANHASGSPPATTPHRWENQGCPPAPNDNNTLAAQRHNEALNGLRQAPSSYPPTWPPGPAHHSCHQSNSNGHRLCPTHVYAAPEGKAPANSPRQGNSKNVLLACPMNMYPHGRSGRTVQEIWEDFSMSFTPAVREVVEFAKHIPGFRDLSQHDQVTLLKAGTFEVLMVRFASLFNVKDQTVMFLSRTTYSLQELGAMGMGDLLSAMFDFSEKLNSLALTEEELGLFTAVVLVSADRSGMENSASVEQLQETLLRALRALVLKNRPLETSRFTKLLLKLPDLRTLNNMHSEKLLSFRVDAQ
Test: modulators of Rev-erb alpha DNA binding, primary screen, biochemical, FITC-DNA, fluorescence polarization, uHTS (AID 1259318);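 also: 0% = DMSO wells with 35 nM protein and 100% = DMSO wells with 750 nM protein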
Conditions: Rev-erbα–FITC-DNA binding, 90 min, at 10 µM
The whole screen tested about 370,000 compounds, of which about 3,000 (0.81%) were called active.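 How the source made its calls: active means activity above about 14% (limit read from the data; passing the limit was not always enough); inactive means the rest.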 This is one part of a sample in which actives are shown more often than they occur.
Write down the outcome that applies. Available outcomes: TRUE for active, FALSE for inactive

## Task How was O=C(CSc1ccc2nnc(-c3ccccc3)n2n1)N1CCCc2ccccc21 classified in this test?
## Result FALSE

## Task Same again, this time with COc1ccc(-c2nnc3ccc(SCc4ccccc4)nn23)cc1
## Result TRUE

## Task Same again, this time with COc1ccccc1OCCNCC(O)COc1cccc2[nH]c3ccccc3c12 (stereo not given)
## Result FALSE

## Task Same again, this time with Cc1cccc(OCCC(=O)Nc2cc(S(=O)(=O)N3CCCCC3)ccc2N2CCOCC2)c1
## Result FALSE

## Task Same again, this time with Cc1nc(CNc2ncnc3ccc(-c4ccc5c(c4)OCO5)cc23)cs1
## Result FALSE

###

Target: Nuclear receptor subfamily 1 group D member 1 (Homo sapiens)
Assay: modulators of Rev-erb alpha DNA binding, primary screen, biochemical, FITC-DNA, fluorescence polarization, uHTS (AID 1259318);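 also: 0% = DMSO wells with 35 nM protein and 100% = DMSO wells with 750 nM protein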
Conditions: Rev-erbα–FITC-DNA binding, 90 min, at 10 µM, stronger effect = higher value
About 3,000 (0.81%) of roughly 370,000 compounds were called active. The entries come from a sample that favours actives as a whole.
Kindly state activity for each of the entries shown.
Provide only the numeric value, understood in %.

## Task Data request, read-out activity, for COc1ccc2[nH]c(C(=O)Nc3ccccc3Cl)cc2c1
## Result 49.3

## Task Same again, this time with C[C@@H](CN1C2=NC[C@@H](Cc3ccccc3)N2C[C@H]1Cc1ccc(O)cc1)NC(=O)CCC1CCCCC1
## Result -3.34

## Task Same again, this time with COc1ccc(OC)c(C2C3=C(N=c4s/c(=C\c5cccc(O)c5)c(=O)n42)c2ccccc2CC3)c1 (configuration not stated)
## Result -1.04

## Task Same again, this time with O=C1CCCC2=C1C(c1ccccc1)n1c(s/c(=C/c3cccc(F)c3)c1=O)=N2 (configuration not stated)
## Result 35

## Task Same again, this time with COc1ccccc1NC(=O)COC(=O)CNC(=O)C1CCCCC1
## Result -2.69

## Task Same again, this time with C=C(C)C1CC=C(C)/C(=N\NC(=O)CNc2ccccc2OC)C1 (configuration not stated)
## Result 28.5

## Task Same again, this time with COc1ccc(CSc2nnc(-c3cccc(C)c3)n2C)cc1
## Result 9.69

## Task Same again, this time with COc1cc2cc(CN(CCN3CCCC3)C(=O)Nc3ccccc3Cl)c(=O)[nH]c2cc1OC
## Result 1.22

## Task Same again, this time with O=C1CC(c2cccc(F)c2)C2=C(CCCC2=O)N1 (configuration not stated)
## Result 1.68

## Task Same again, this time with O=C(O)CCC(=O)O
## Result -4.29

## Task Same again, this time with COc1ccc(-c2cc(-c3nnc(SCC(=O)Nc4cccc5ccccc45)n3N)[nH]n2)cc1
## Result -0.24

## Task Same again, this time with O=C(CN1CCC(NC(=O)NCc2ccccc2)CC1)Nc1ccc2c(c1)OCCO2
## Result -2.38

## Task Same again, this time with CSc1ccccc1C(=O)OCC(=O)N1CCN(C(C)=O)CC1
## Result -6.48

## Task Same again, this time with O=C(c1cccc(Br)c1)N1CCN(C2=NS(=O)(=O)c3ccccc32)CC1
## Result 1

## Task Same again, this time with C/C(=N\NC(=O)c1cc2c(s1)CCC(C)C2)c1cccnc1 (configuration not stated)
## Result -5.04

## Task Same again, this time with CCCc1nnc(NC(=O)CCC(=O)NC2CC2)s1
## Result -1.12

## Task Same again, this time with Cc1ccc2c(C)c(C(=O)N3CCC(N4CCC(C(=O)NC5CC5)CC4)CC3)oc2c1
## Result 5.47

## Task Same again, this time with O=C1CC(C(=O)O)NC(=S)N1 (configuration not stated)
## Result -0.01

## Task Same again, this time with Cc1ccc(N(C(=O)Cc2cccs2)C2C=CS(=O)(=O)C2)cc1Cl (configuration not stated)
## Result 8.02

## Task Same again, this time with CCOC(=O)CNC(=O)CSc1ccc2nnc(-c3cccnc3)n2n1
## Result 3.05

## Task Same again, this time with CC(C)OCCCNC(=O)CN1C(=O)/C(=C/c2ccccc2F)Oc2ccccc21
## Result 25

## Task Same again, this time with Cc1cc(C(C)(C)C)n2nc(C)c(-c3ccccc3)c2n1
## Result 31.7

###

Kindly state activity for each of the entries shown.
Molecular target: Nuclear receptor subfamily 1 group D member 1 (Homo sapiens) (UniProt P20393)
Test: modulators of Rev-erb alpha DNA binding, primary screen, biochemical, FITC-DNA, fluorescence polarization, uHTS (AID 1259318);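 also: 0% = DMSO wells with 35 nM protein and 100% = DMSO wells with 750 nM protein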
Conditions: Rev-erbα–FITC-DNA binding, 90 min, at 10 µM, stronger effect = higher value
Out of some 370,000 compounds screened, about 3,000 (0.81%) were called active. What follows is part of a selection rich in actives, with near analogues and random picks from the rest.
Provide only the numeric value, understood in %.

## Task Data request, read-out activity, for Cn1c(N)cc(-c2ccc(F)cc2)c(C#N)c1=O
## Result -1.46

## Task Same again, this time with CCc1c(C)nc2c(-c3ccccc3)c(C)nn2c1Nc1ccc(NC(C)=O)cc1
## Result -3.83

## Task Same again, this time with CC(C)CCn1c(CN(C)Cc2ccccc2)nc2c1c(=O)n(C)c(=O)n2C
## Result 3.74

## Task Same again, this time with CCc1ccccc1NC(=O)CSc1nnc(-c2cccs2)o1
## Result -8.53

## Task Same again, this time with CC(C)Cn1c(CN(Cc2ccccc2)Cc2ccccc2)nc2c1c(=O)n(C)c(=O)n2C
## Result 42.6

## Task Same again, this time with CCOC(=O)c1[nH]c2ccc(C)cc2c1N=C(C)N(C)C
## Result 0.97

## Task Same again, this time with Cc1cc(C)c2c(-c3ccc(F)cc3)c(C#N)c(=O)n(C)c2n1
## Result 56.8

## Task Same again, this time with CCN(CCCNC(=O)c1ccc2c(c1)NC(=O)CN2C)c1cccc(C)c1
## Result -3.82

## Task Same again, this time with S=c1nccc(-c2cc(Cl)sc2Cl)[nH]1
## Result 20.9

## Task Same again, this time with COC(=O)C12C=C3CC(c4ccccc4)=C3C(=O)N1Cc1[nH]c3ccccc3c1C2 (stereo unspecified)
## Result -0.17

## Task Same again, this time with COc1ccc(O)c(C(=O)c2cnc3c(c2)c(-c2ccc(F)cc2)c(C#N)c(=O)n3C)c1
## Result -4.88

###

Kindly state activity for each of the entries shown.
Target: Nuclear receptor subfamily 1 group D member 1 (Homo sapiens) (UniProt P20393)
Assay: modulators of Rev-erb alpha DNA binding, primary screen, biochemical, FITC-DNA, fluorescence polarization, uHTS (AID 1259318);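 also: 0% = DMSO wells with 35 nM protein and 100% = DMSO wells with 750 nM protein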
Conditions: Rev-erbα–FITC-DNA binding, 90 min, at 10 µM, stronger effect = higher value
Out of some 370,000 compounds screened, about 3,000 (0.81%) were called active. The sample holds actives, similar compounds and a random draw of the others, so the mix is not that of the screen.
Provide only the numeric value, understood in %.

## Task Data request, read-out activity, for CCOc1ncccc1C(=O)N(CC)CC(=O)Nc1ccc(NC(C)=O)cc1
## Result -1.37

## Task Same again, this time with O=C(NCc1ccco1)C1CCCN(S(=O)(=O)c2ccc(Cl)s2)C1 (stereo not given)
## Result -2.05

## Task Same again, this time with CC(=O)Nc1ccc(S(=O)(=O)N2CCN(S(=O)(=O)c3cccs3)CC2)cc1
## Result -1.45

## Task Same again, this time with CCN(CC)S(=O)(=O)c1cccc(NC(=O)c2ccc(S(=O)(=O)N3CCCC3)cc2)c1
## Result 5.55

## Task Same again, this time with C=CCn1c(CCNC(=O)c2cccs2)n[nH]c1=S
## Result -1.01
